The origin of these recorded values is ChEMBL document CHEMBL1159269.

Recorded inhibition for the following compounds
# System: DNA
# test details: Binding affinity to calf thymus DNA assessed as inhibition of DNA peak at 260 nm wavelength at 250 ug/ml by HPLC
# Format: nucleic-acid assay
# details: Bos taurus

{"test smiles": "CC1(C)CC[C@]2(C(=O)O)CC=C3[C@]4(C)CC[C@H]5C(C)(C)[C@@H](OC(=O)c6ccc(O)cc6)C[C@@H](O)[C@]5(C)[C@H]4CC[C@@]3(C)[C@H]2C1", "unit of measurement": "%", "inhibition": 0}
{"test smiles": "COc1cc(O)c2c(=O)c3c(O)c(-c4c(O)c([C@@H]5O[C@H](CO)[C@@H](O)[C@H](O)[C@H]5O)c(O)c5c(=O)cc(-c6ccc(O)c(O)c6)oc45)cc(O)c3oc2c1", "unit of measurement": "%", "inhibition": 71}
{"test smiles": "COc1cc2c(ccc3c4cc(OC)c(OC)cc4c[n+](C)c23)cc1O", "unit of measurement": "%", "inhibition": 100}
{"test smiles": "C=C1C(=O)O[C@@H](CCCCCCCCCCCCC)[C@@H]1C(=O)O", "unit of measurement": "%", "inhibition": 1.3}
